tested on: PANC-1; assay: Cytotoxicity against human PANC1 cells assessed as decrease in cell viability after 72 hrs by MTT assay; type: functional, cell-based; conditions: PANC-1, 72 h

# input.smiles, assayed.system, IC50
records = [
    ("CCN(CC)CCNC(=O)c1ccc(NCCN2C(=O)c3ccccc3C2=O)cc1", "PANC-1", "5 µM"),
]
